Below, each of the compounds is paired with its reported GI50 value.
system: DU-145; assay: cells; assay type: functional; conditions: Homo sapiens

- Compound: "COc1cc2c(cc1OS(N)(=O)=O)CCN(Cc1cc(OC)c(OC)c(OC)c1)C2C (stereo not given)"
  GI50: "360 nM"
- Compound: "COc1cc2c(cc1OS(N)(=O)=O)CCN(Cc1cc(OC)c(OC)c(OC)c1)C2"
  GI50: "297 nM"
- Compound: "CCOc1c(OC)cc(CN2CCc3cc(OS(N)(=O)=O)c(OC)cc3C2)cc1OC"
  GI50: "100 nM"
- Compound: "COc1ccc(F)c(CN2Cc3cc(OC)c(OS(N)(=O)=O)cc3CC2C)c1 (stereo not given)"
  GI50: "299 nM"
- Compound: "CCC1Cc2cc(OS(N)(=O)=O)c(OC)cc2CN1Cc1cccc(OC)c1 (stereo not given)"
  GI50: "286 nM"
- Compound: "COc1cc2c(cc1OS(N)(=O)=O)CCN(Cc1cc(Br)c(OC)c(OC)c1)C2"
  GI50: "30 nM"
- Compound: "CCc1cc2c(cc1OS(N)(=O)=O)CCN(Cc1cc(OC)c(OC)c(OC)c1)C2"
  GI50: "41 nM"
- Compound: "CCc1cc2c(cc1OS(N)(=O)=O)CCN(Cc1cc(Br)c(OC)c(OC)c1)C2"
  GI50: "20 nM"
- Compound: "COc1cc2c(cc1OS(N)(=O)=O)CCN(Cc1cc(Cl)c(OC)c(OC)c1)C2"
  GI50: "40 nM"
- Compound: "COc1ccc(OC)c(CN2Cc3cc(OC)c(OS(N)(=O)=O)cc3CC2C)c1 (stereo not given)"
  GI50: "189 nM"

----------
experiment: in vivo; settings: MF1, mouse

- Smiles: "COc1cc2c(cc1OS(N)(=O)=O)CC[C@@H]1[C@@H]2CC[C@]2(C)[C@@H](OS(N)(=O)=O)CC[C@@H]12"
  LD50 / mg/kg: 80

----------
species: Rattus norvegicus; assay: animal or person; format: functional; settings: Wistar, po, 3 h
Below, each of the compounds is paired with its reported inhibition in vivo at 10 mg/kg value.
Assay Metric: inhibition in vivo at 10 mg/kg

- Smiles: "N#Cc1ccc(N(CCSc2ccc(OS(N)(=O)=O)c(Cl)c2)n2cnnc2)cc1"
  Assay Metric: "inhibition in vivo at 10 mg/kg"
  Measurement: "98%"
- Smiles: "N#Cc1ccc(N(Cc2ccc(OS(N)(=O)=O)cc2)n2cnnc2)cc1"
  Assay Metric: "inhibition in vivo at 10 mg/kg"
  Measurement: "39%"
- Smiles: "N#Cc1ccc(N(Cc2ccc3c(Cl)c(OS(N)(=O)=O)ccc3c2)n2cnnc2)cc1"
  Assay Metric: "inhibition in vivo at 10 mg/kg"
  Measurement: "93%"
- Smiles: "N#Cc1ccc(N(Cc2ccc(Br)cc2)n2cnnc2)cc1"
  Assay Metric: "inhibition in vivo at 10 mg/kg"
  Measurement: "70%"

----------
Below, each of the molecules is paired with its reported pIC50 value.
biological target: Steryl-sulfatase (Homo sapiens, UniProt P08842); format: cell-based, JEG-3
Sequence (P08842 whole entry): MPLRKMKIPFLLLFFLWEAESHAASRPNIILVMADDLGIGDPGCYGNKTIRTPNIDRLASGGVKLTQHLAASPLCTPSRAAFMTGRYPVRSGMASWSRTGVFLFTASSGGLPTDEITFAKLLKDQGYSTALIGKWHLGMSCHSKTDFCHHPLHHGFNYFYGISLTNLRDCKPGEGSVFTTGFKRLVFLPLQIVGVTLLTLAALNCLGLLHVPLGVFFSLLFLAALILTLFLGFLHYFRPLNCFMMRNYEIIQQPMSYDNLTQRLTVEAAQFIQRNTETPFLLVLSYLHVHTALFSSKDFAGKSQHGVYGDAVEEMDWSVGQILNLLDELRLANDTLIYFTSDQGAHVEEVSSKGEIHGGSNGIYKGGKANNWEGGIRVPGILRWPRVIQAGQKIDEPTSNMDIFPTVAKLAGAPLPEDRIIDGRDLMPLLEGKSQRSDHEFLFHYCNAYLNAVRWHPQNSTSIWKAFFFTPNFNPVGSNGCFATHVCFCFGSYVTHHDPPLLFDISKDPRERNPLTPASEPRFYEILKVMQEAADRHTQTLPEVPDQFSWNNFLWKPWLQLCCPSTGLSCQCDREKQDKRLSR
pIC50: −log10 of the molar value.

- Molecule: "Cn1nnc2ccc(C(c3ccc(OS(N)(=O)=O)cc3)n3cncn3)cc21 (stereo not given)"
  Relation Sign: "<"
  pIC50: 5.00
- Molecule: "N#Cc1ccc(N(CCSc2ccc(OS(N)(=O)=O)c(Cl)c2)n2cnnc2)cc1"
  Relation Sign: "="
  pIC50: 5.92
- Molecule: "N#Cc1ccc(N(Cc2ccc3c(Br)c(OS(N)(=O)=O)ccc3c2)n2cnnc2)cc1"
  Relation Sign: "="
  pIC50: 6.69
- Molecule: "N#Cc1ccc(N(Cc2ccc3cc(OS(N)(=O)=O)ccc3c2)n2cnnc2)cc1"
  Relation Sign: "="
  pIC50: 6.44
- Molecule: "N#Cc1ccc(N(Cc2ccc3c(Cl)c(OS(N)(=O)=O)ccc3c2)n2cnnc2)cc1"
  Relation Sign: "="
  pIC50: 7.59
